The measurements presented in this section are drawn from PubChem BioAssay AID707.

compounds and their reported inhibition
- assayed target: Bifunctional epoxide hydrolase 2 (Homo sapiens) (UniProt P34913)
- Sequence (P34913 whole entry, looked up): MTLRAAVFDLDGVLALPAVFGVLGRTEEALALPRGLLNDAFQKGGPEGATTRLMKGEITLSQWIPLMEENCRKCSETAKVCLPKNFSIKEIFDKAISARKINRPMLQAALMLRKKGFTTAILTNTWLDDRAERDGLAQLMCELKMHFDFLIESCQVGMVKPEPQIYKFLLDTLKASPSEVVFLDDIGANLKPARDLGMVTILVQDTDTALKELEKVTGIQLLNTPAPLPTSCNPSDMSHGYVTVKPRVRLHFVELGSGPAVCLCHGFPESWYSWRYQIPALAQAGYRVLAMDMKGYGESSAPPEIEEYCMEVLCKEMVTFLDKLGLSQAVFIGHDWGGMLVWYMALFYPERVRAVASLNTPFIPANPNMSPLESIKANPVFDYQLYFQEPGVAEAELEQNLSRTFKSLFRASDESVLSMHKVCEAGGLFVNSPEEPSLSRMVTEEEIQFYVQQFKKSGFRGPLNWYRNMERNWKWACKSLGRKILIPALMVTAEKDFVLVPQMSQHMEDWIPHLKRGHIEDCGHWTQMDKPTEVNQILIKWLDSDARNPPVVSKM
- test protocol: sEH enzyme activity blockers – biochemical, human sEH, primary screen (AID 707)
- condition: recombinant human sEH enzymatic activity assay; at 2 µM; hits give high values
Out of some 91,000 compounds screened, about 310 (0.34%) were called active. Shown is part of a subset that was picked to be rich in actives.
Quick note: give the figure in %, leave out the unit.

Worked cases, inhibition given:
compound	inhibition, %
Cc1cccc(-n2cnc(C(=O)Nc3cccnc3)c2)n1	-6.9
CCOc1ccc(NC(=O)Nc2cc(C)on2)cc1	2.9
C=CCNc1nc(N)c(C(=C(C#N)C#N)c2ccccc2)s1	4.9
CCOc1ccc(NC(=O)Nc2ccc(N(C)C(C)=O)cc2)cc1	82.3
CC1(C)CC(=O)C(C=NCCN2CCN(C(=S)Nc3cccc(Cl)c3)CC2)=C(O)C1	13.9

Ask: Give its inhibition value. Item: CON(C)S(=O)(=O)c1ccc2c(c1)NC(=O)C1CCCN21 (stereo unspecified)
Result: -14.7

----------
- assayed target: Bifunctional epoxide hydrolase 2 (Homo sapiens)
- test protocol: sEH enzyme activity blockers – biochemical, human sEH, primary screen (AID 707)
- condition: recombinant human sEH enzymatic activity assay; at 2 µM; hits give high values
The whole screen tested about 91,000 compounds, of which about 310 (0.34%) were called active. This is one part of a sample in which actives are shown more often than they occur.
parameter measured: inhibition (%)
Quick note: give the figure in %, leave out the unit.

Worked cases, inhibition given:
compound	assayed target	inhibition, %
COc1ccc(CCNC(=O)c2ccc3c(c2)NC(=O)C(N2CCOCC2)S3)cc1OC (stereo unspecified)	Bifunctional epoxide hydrolase 2 (Homo sapiens)	100
CCOc1ccc(C(=O)NC2CCN(S(=O)(=O)CC)CC2)cc1	Bifunctional epoxide hydrolase 2 (Homo sapiens)	-0.5
CCc1ccc(/C=N/NC(=O)c2ccc(OC3CCCC3)cc2)s1	Bifunctional epoxide hydrolase 2 (Homo sapiens)	95.6
Cc1cc(/C=C2/SC(=O)N(CC(=O)OC(C)C)C2=O)c(C)n1C	Bifunctional epoxide hydrolase 2 (Homo sapiens)	-9.2
CS(=O)(=O)N1CCN(c2ccc(C(=O)NC3C4CC5CC(C4)CC3C5)cc2[N+](=O)[O-])CC1 (stereo unspecified)	Bifunctional epoxide hydrolase 2 (Homo sapiens)	-10.1

Now take the following compound into account.
Ask: Give its inhibition value. Item: O=C(CN1CCCCCC1)Nc1ccc(Br)cc1Br
Result: 9.4

----------
- assayed target: Bifunctional epoxide hydrolase 2 (Homo sapiens) (UniProt P34913)
- test protocol: sEH enzyme activity blockers – biochemical, human sEH, primary screen (AID 707)
- condition: recombinant human sEH enzymatic activity assay; at 2 µM; hits give high values
About 310 (0.34%) of roughly 91,000 compounds were called active. This is one part of a sample in which actives are shown more often than they occur.
parameter measured: inhibition

Worked cases, inhibition given:
compound	inhibition
COc1ccc(CCNC(=S)NC(=O)/C=C/c2ccc(C)cc2)cc1OC	-0.9% (inactive)
CC(=O)c1cn(CCCCCCCCCCn2cc(C(C)=O)c(=O)[nH]c2=O)c(=O)[nH]c1=O	-2% (inactive)
O=C(Nc1ccc(-n2ccnc2P(=O)(O)c2ccccc2)cc1)c1ccccc1Br	-9.1% (inactive)
O=C(CSc1ncnc2c1cnn2CCc1ccccc1)Nc1ccc(F)cc1	20.5% (inactive)

Ask: Give its inhibition value. Item: NC(=O)N1CCCC1C(=O)Nc1ccc(Cl)c(Cl)c1 (stereo unspecified)
Result: 6.3% (inactive)

Ask: Give its inhibition value. Item: O=C1CCN(C(=O)Nc2ccccc2)N1
Result: 2.7% (inactive)

----------
- assayed target: Bifunctional epoxide hydrolase 2 (Homo sapiens)
- test protocol: sEH enzyme activity blockers – biochemical, human sEH, primary screen (AID 707)
- condition: recombinant human sEH enzymatic activity assay; at 2 µM; hits give high values
Hit rate of the full screen: of about 91,000 compounds, about 310 (0.34%) were called active. The entries come from a sample that favours actives as a whole.
parameter measured: inhibition (%)
Quick note: give the figure in %, leave out the unit.

Ask: Give its inhibition value. Item: Cc1ccc(/C=N/NC(=O)C(NC(=O)c2ccccc2)c2n[nH]c(=O)c3ccccc23)cc1 (stereo not given)
Result: -0.8

----------
- assayed target: Bifunctional epoxide hydrolase 2 (Homo sapiens) (UniProt P34913)
- test protocol: sEH enzyme activity blockers – biochemical, human sEH, primary screen (AID 707)
- condition: recombinant human sEH enzymatic activity assay; at 2 µM; hits give high values
The whole screen tested about 91,000 compounds, of which about 310 (0.34%) were called active. The entries come from a sample that favours actives as a whole.
parameter measured: inhibition (%)
Quick note: give the figure in %, leave out the unit.

compound	assayed target	reading
CC1CCCCN1CC(=O)NCc1ccc2c(c1)OCO2 (stereo unspecified)	Bifunctional epoxide hydrolase 2 (Homo sapiens) (UniProt P34913)	3.9
CC(C)C(NS(=O)(=O)c1cccs1)C(=O)Nc1nc(C(C)(C)C)cs1 (stereo unspecified)	Bifunctional epoxide hydrolase 2 (Homo sapiens) (UniProt P34913)	3.1
O=C(Cn1cncn1)N/N=C/c1c2ccccc2cc2ccccc12	Bifunctional epoxide hydrolase 2 (Homo sapiens) (UniProt P34913)	2
Cc1ccc2nc(Nc3ccccc3O)nc(-c3ccccc3)c2c1	Bifunctional epoxide hydrolase 2 (Homo sapiens) (UniProt P34913)	0.8
Cc1[nH]nc(-c2ccc(OCc3cnn(-c4ccccc4)c3)cc2O)c1Oc1ccc(Cl)cc1	Bifunctional epoxide hydrolase 2 (Homo sapiens) (UniProt P34913)	11.4

Now take the following compound into account.
Ask: Give its inhibition value. Item: CCOC(=O)NCc1ccc2c(c1)OCO2
Result: 4.7

----------
- assayed target: Bifunctional epoxide hydrolase 2 (Homo sapiens)
- test protocol: sEH enzyme activity blockers – biochemical, human sEH, primary screen (AID 707)
- condition: recombinant human sEH enzymatic activity assay; at 2 µM; hits give high values
The whole screen tested about 91,000 compounds, of which about 310 (0.34%) were called active. This is one part of a sample in which actives are shown more often than they occur.
parameter measured: inhibition

Ask: GET /values?readout=inhibition&system=Bifunctional epoxide hydrolase 2 (Homo sapiens)&item= O=C(Cc1ccc2c(c1)CCCC2)Nc1ccccc1Cl
Result: 7.7% (inactive)

Ask: GET /values?readout=inhibition&system=Bifunctional epoxide hydrolase 2 (Homo sapiens)&item= O=C(CNC(=O)OCc1ccccc1)Oc1cc2oc(=O)cc(-c3ccccc3)c2cc1Cl
Result: -5.2% (inactive)

Ask: GET /values?readout=inhibition&system=Bifunctional epoxide hydrolase 2 (Homo sapiens)&item= COc1cccc(NC(=O)C2c3cc(OC)c(OC)cc3C(=O)N(C)C2c2cccnc2)c1 (stereo not given)
Result: -8.1% (inactive)

Ask: GET /values?readout=inhibition&system=Bifunctional epoxide hydrolase 2 (Homo sapiens)&item= COc1ccc(/C=C2\CCCC3C2=NN(C(=O)c2scnc2C)C3c2ccc(OC)cc2)cc1 (stereo not given)
Result: -10.6% (inactive)

Ask: GET /values?readout=inhibition&system=Bifunctional epoxide hydrolase 2 (Homo sapiens)&item= Cc1ccc(NC(=S)N/N=C2/CCCc3c(C)cc(C)cc32)cc1
Result: -9.1% (inactive)

Ask: GET /values?readout=inhibition&system=Bifunctional epoxide hydrolase 2 (Homo sapiens)&item= COc1ccccc1CSc1nc2ccccc2[nH]1
Result: -2.6% (inactive)

Ask: GET /values?readout=inhibition&system=Bifunctional epoxide hydrolase 2 (Homo sapiens)&item= CC(=O)c1cnc(SCCN2C(=O)c3ccccc3C2=O)nc1C
Result: 8.1% (inactive)

----------
- assayed target: Bifunctional epoxide hydrolase 2 (Homo sapiens)
- test protocol: sEH enzyme activity blockers – biochemical, human sEH, primary screen (AID 707)
- condition: recombinant human sEH enzymatic activity assay; at 2 µM; hits give high values
About 310 (0.34%) of roughly 91,000 compounds were called active. The entries come from a sample that favours actives as a whole.
parameter measured: inhibition

Worked cases, inhibition given:
compound structure string	inhibition
Cc1nn(CC(=O)Nc2nc3ccccc3s2)c(C)c1[N+](=O)[O-]	-6.1% (inactive)
CO/N=C/c1ccc(N2CCN(C(=O)c3cccc(Cl)c3)CC2)c([N+](=O)[O-])c1	-9.1% (inactive)
C=CCn1c(-c2ccc(Cl)cc2)ccc(C#N)c1=O	-0.8% (inactive)
Cc1onc(-c2c(Cl)cccc2Cl)c1C(=O)c1c[nH]c(C(=O)NC2CC2)c1	2% (inactive)

Ask: Give its inhibition value. Item: COc1ccc(/C=C(/NC(=O)c2ccc(C)cc2)c2nc3ccccc3[nH]2)cc1OC
Result: 1.8% (inactive)

----------
- assayed target: Bifunctional epoxide hydrolase 2 (Homo sapiens) (UniProt P34913)
- test protocol: sEH enzyme activity blockers – biochemical, human sEH, primary screen (AID 707)
- condition: recombinant human sEH enzymatic activity assay; at 2 µM; hits give high values
The whole screen tested about 91,000 compounds, of which about 310 (0.34%) were called active. The entries come from a sample that favours actives as a whole.
compounds and their reported inhibition
Quick note: give the figure in %, leave out the unit.

Worked cases, inhibition given:
compound	assayed target	inhibition (%)
N#Cc1cc([N+](=O)[O-])ccc1Oc1cccc(/C=N/NC(=O)c2ccc(Cl)cc2)c1	Bifunctional epoxide hydrolase 2 (Homo sapiens) (UniProt P34913)	18.1
CCOC(=O)N1CCN(c2c(NCCCN3CCCC(C)C3)c(=O)c2=O)CC1 (stereo not drawn)	Bifunctional epoxide hydrolase 2 (Homo sapiens) (UniProt P34913)	-4.6
Cc1ccccc1OCc1nnc(SCC(=O)N2c3ccccc3Sc3ccc(Cl)cc32)o1	Bifunctional epoxide hydrolase 2 (Homo sapiens) (UniProt P34913)	-2.3
COc1ccc(C(=S)Nc2ccccc2)cc1	Bifunctional epoxide hydrolase 2 (Homo sapiens) (UniProt P34913)	4.8
CCOC(=O)c1ccc(NC(=O)CSc2nnc(COc3ccccc3OC)n2C)cc1	Bifunctional epoxide hydrolase 2 (Homo sapiens) (UniProt P34913)	9.6
ONC(=Nc1ccc(Cl)cc1)c1ccccc1Cl	Bifunctional epoxide hydrolase 2 (Homo sapiens) (UniProt P34913)	-9.2
Cc1ccc(-n2nc(N)c3c(=O)oc(N(C)C)nc32)cc1	Bifunctional epoxide hydrolase 2 (Homo sapiens) (UniProt P34913)	10.2
COc1cc(C(=O)NC(=S)NCc2ccco2)cc(OC)c1OC	Bifunctional epoxide hydrolase 2 (Homo sapiens) (UniProt P34913)	12
Cc1[nH]n(-c2ccccc2)c(=O)c1CCOC(=O)c1ccc(C(F)(F)F)cc1	Bifunctional epoxide hydrolase 2 (Homo sapiens) (UniProt P34913)	7.1
O=C1c2ccccc2C(=O)c2c1cccc2N1CCN(CCO)CC1	Bifunctional epoxide hydrolase 2 (Homo sapiens) (UniProt P34913)	5.4

Ask: Give its inhibition value. Item: COCc1cc(C)nc2sc3c(=O)n(-c4cccc5ccccc45)nnc3c12
Result: 3.4

Ask: Give its inhibition value. Item: N#Cc1ccc(-c2ccc(Cl)cc2)nc1Oc1ccc(F)cc1
Result: 7.8

Ask: Give its inhibition value. Item: O=C(Cc1cccc2ccccc12)Nc1ccc2oc(-c3ccccc3)nc2c1
Result: 50

Ask: Give its inhibition value. Item: CN(C(=O)CSc1nc(C2CC2)nc2ccccc12)c1nc(-c2ccccc2)cs1
Result: 4.4

Ask: Give its inhibition value. Item: Cc1cccc(N(C(=O)Cc2cccs2)C(C(=O)NC2CCCC2)c2ccsc2)c1 (stereo not drawn)
Result: 1.9

Ask: Give its inhibition value. Item: CCCCNC(=O)CSc1nc2ccc(NC(=O)CSc3nnc(COc4ccccc4C)n3C)cc2s1
Result: 88.5

Ask: Give its inhibition value. Item: O=C(COc1ccc(Cl)cc1)NCCC1=CCCCC1
Result: 14.4
